Protocol: Ki/Km values of L1210/0 dTMP synthase for the compound was determined.
Experimental endpoint: Ratio

INSERT INTO measurements (compound, result_comparator, recorded_value) VALUES
  ('O=c1[nH]c(=O)n([C@H]2C[C@H](O)[C@@H](CO)O2)cc1F', '=', 66.5),
  ('O=c1[nH]c(=O)n([C@H]2C[C@H](O)[C@@H](COP3(=O)OCC(F)(F)CO3)O2)cc1F', '>', 110),
  ('O=c1[nH]c(=O)n([C@H]2C[C@H](O)[C@@H](COP(=O)(O)O)O2)cc1F [5-FLUORODEOXYURIDYLATE]', '=', 0.0099),
  ('O=c1[nH]c(=O)n([C@H]2C[C@H](O)[C@@H](COP3(=O)OCC(O)CO3)O2)cc1F (stereo not given in full)', '>', 60),
  ('O=c1[nH]c(=O)n([C@H]2C[C@H](O)[C@@H](COP3(=O)OCCCO3)O2)cc1F', '>', 110);
